Hello, the source for this data is paper PMC10881500, in case you need it.

# systemTested: T1, Recombinant, purified TRBC2 (soluble αβ TCR with the β-chain constant domain TRBC2), SPR analyte (Homo sapiens, HA1.7 TCR with TRBC2)
# T1 construct: also called recombinant TRBC2; source: recombinant, purified
# protocolText: SPR; Biacore T200; antibody as human IgG1 captured with an anti-human capture kit on CM5 to 200 RU; TRBC1 or TRBC2 as analyte, 150 s contact, 300 s dissociation, 30 μl/min, 25 °C, HBS-P+ pH 7.4; 1:1 Langmuir model
# conditionInfo: both partners purified
Please go through the items and note down their koff.
One number for each entry, in s⁻¹.

Worked cases, koff given:
- binder: "RFN (Mut4; HuJovi-1 VH T28R, Y32F, A96N), human IgG1 (antibody, V domains shown, as the VH of m1 with the stated changes; positions in Kabat numbering; constant region of the human IgG1 heavy chain; as the light chain of m1; IgG1 in the SPR; also called Arg28/Phe32/Asn96; source: ExpiCHO, transient transfection, purified (MabSelect SuRe)) VH: QVQLVQSGAEVKKPGASVKVSCKASGYRFTGFVMHWVRQAPGQGLEWMGFINPYNDDIQSNERFRGRVTMTRDTSISTAYMELSRLRSDDTAVYYCARGNGYNFDGAYRFFDFWGQGTMVTVSS VL: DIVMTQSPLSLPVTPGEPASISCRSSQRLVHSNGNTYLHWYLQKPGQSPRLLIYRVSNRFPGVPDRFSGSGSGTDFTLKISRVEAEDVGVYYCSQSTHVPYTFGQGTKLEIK"
  koff (s⁻¹): 0.045
- binder: "Mut2 (HuJovi-1 VH T28K, Y32F), human IgG1 (antibody, V domains shown, as the VH of m1 with the stated changes; positions in Kabat numbering; constant region of the human IgG1 heavy chain; as the light chain of m1; IgG1; also called Lys28/Phe32; Thr28Lys, Tyr32Phe double mutant; source: ExpiCHO, transient transfection, purified (MabSelect SuRe)) VH: QVQLVQSGAEVKKPGASVKVSCKASGYKFTGFVMHWVRQAPGQGLEWMGFINPYNDDIQSNERFRGRVTMTRDTSISTAYMELSRLRSDDTAVYYCARGAGYNFDGAYRFFDFWGQGTMVTVSS VL: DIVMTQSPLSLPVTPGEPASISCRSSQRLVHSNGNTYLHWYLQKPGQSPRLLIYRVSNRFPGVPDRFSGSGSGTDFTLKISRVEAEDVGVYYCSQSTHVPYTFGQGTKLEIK"
  koff (s⁻¹): 0.125
- binder: "Mut7 (HuJovi-1 VH T28K, A96N), human IgG1 (antibody, V domains shown, as the VH of m1 with the stated changes; positions in Kabat numbering; constant region of the human IgG1 heavy chain; as the light chain of m1; IgG1; source: ExpiCHO, transient transfection, purified (MabSelect SuRe)) VH: QVQLVQSGAEVKKPGASVKVSCKASGYKFTGYVMHWVRQAPGQGLEWMGFINPYNDDIQSNERFRGRVTMTRDTSISTAYMELSRLRSDDTAVYYCARGNGYNFDGAYRFFDFWGQGTMVTVSS VL: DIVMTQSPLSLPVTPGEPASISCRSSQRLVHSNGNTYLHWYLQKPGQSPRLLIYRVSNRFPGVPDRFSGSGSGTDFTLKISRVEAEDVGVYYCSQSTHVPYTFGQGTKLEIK"
  koff (s⁻¹): 0.166
- binder: "Mut6 (HuJovi-1 VH A96N), human IgG1 (antibody, V domains shown, as the VH of m1 with the stated change; positions in Kabat numbering; constant region of the human IgG1 heavy chain; as the light chain of m1; IgG1; source: ExpiCHO, transient transfection, purified (MabSelect SuRe)) VH: QVQLVQSGAEVKKPGASVKVSCKASGYTFTGYVMHWVRQAPGQGLEWMGFINPYNDDIQSNERFRGRVTMTRDTSISTAYMELSRLRSDDTAVYYCARGNGYNFDGAYRFFDFWGQGTMVTVSS VL: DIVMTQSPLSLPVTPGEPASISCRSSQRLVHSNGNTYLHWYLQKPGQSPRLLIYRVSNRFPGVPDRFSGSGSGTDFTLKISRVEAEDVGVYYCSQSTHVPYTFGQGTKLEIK"
  koff (s⁻¹): 0.00194
- binder: "KFN (Mut3; HuJovi-1 VH T28K, Y32F, A96N), human IgG1 (antibody, V domains shown, VH of KFN: as the VH of m1 (PDB 7AMP, 7AMQ) with the stated changes, positions in Kabat numbering; constant region of the human IgG1 heavy chain; as the light chain of m1; IgG1; also called Lys28/Phe32/Asn96; aTRBC2; source: ExpiCHO, transient transfection, purified (MabSelect SuRe)) VH: QVQLVQSGAEVKKPGASVKVSCKASGYKFTGFVMHWVRQAPGQGLEWMGFINPYNDDIQSNERFRGRVTMTRDTSISTAYMELSRLRSDDTAVYYCARGNGYNFDGAYRFFDFWGQGTMVTVSS VL: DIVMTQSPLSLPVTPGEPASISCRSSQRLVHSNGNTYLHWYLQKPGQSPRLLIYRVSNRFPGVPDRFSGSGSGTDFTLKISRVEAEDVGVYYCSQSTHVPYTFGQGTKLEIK"
  koff (s⁻¹): 0.0386

Continue with the next binder.
Query string: Record request: koff value, item Mut1 (HuJovi-1 VH T28K), human IgG1 (antibody, V domains shown, as the VH of m1 with the stated change; positions in Kabat numbering; constant region of the human IgG1 heavy chain; as the light chain of m1; IgG1; also called Lys28 mutant; Thr28Lys; source: ExpiCHO, transient transfection, purified (MabSelect SuRe)) VH: QVQLVQSGAEVKKPGASVKVSCKASGYKFTGYVMHWVRQAPGQGLEWMGFINPYNDDIQSNERFRGRVTMTRDTSISTAYMELSRLRSDDTAVYYCARGAGYNFDGAYRFFDFWGQGTMVTVSS VL: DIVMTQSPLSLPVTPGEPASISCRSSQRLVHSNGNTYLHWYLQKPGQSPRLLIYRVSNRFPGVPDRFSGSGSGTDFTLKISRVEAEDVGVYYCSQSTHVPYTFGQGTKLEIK
Result string: 0.585
